Reported Beating below threshold, number of observations/total well numbers is given for each of the following molecules.
- System: hiPSC-CMs (iCell-Cardiomyocytes^2)
- Experimental Context: 1 µM, 2h
Quantity Kind: Beating below threshold, number of observations/total well numbers

# Molecule, Tested System, Reported Result
measured = [
    ("N=C(N)c1ccc(OCCCCCOc2ccc(C(=N)N)cc2)cc1", "hiPSC-CMs (iCell-Cardiomyocytes^2)", "0/6"),
    ("COc1cccc2c1C(=O)c1c(O)c3c(c(O)c1C2=O)C[C@@](O)(C(=O)CO)C[C@@H]3O[C@H]1C[C@H](N)[C@H](O)[C@H](C)O1", "hiPSC-CMs (iCell-Cardiomyocytes^2)", "0/5"),
    ("COc1nc(N)nc2c1ncn2[C@@H]1O[C@H](COP(=O)(N[C@@H](C)C(=O)OCC(C)(C)C)Oc2cccc3ccccc23)[C@@H](O)[C@@]1(C)O (stereo partly drawn)", "hiPSC-CMs (iCell-Cardiomyocytes^2)", "0/5"),
]

----------
- Tested on: hiPSC-CMs (iCell-Cardiomyocytes^2)
- Method Description: MEA impedance (cytotoxicity readout) in hiPSC-CMs
- Experimental Context: 1 µM, 96h
Please respond with Yes when measured Imp (impedance), % change from baseline is strictly beneath -20%, and with No in all other cases.

# Molecule, Assigned Class
rows = [
    ("O=C(O)COCCN1CCN(C(c2ccccc2)c2ccc(Cl)cc2)CC1 (centres unmarked)", "No"),
    ("C[C@H](CS)C(=O)N1CCC[C@H]1C(=O)O", "No"),
    ("CCN(CC)CCNC(=O)c1c(C)[nH]c(/C=C2\\C(=O)Nc3ccc(F)cc32)c1C", "No"),
    ("COc1cccc2c1C(=O)c1c(O)c3c(c(O)c1C2=O)C[C@@](O)(C(=O)CO)C[C@@H]3O[C@H]1C[C@H](N)[C@H](O)[C@H](C)O1", "Yes"),
    ("N=C(N)c1ccc(OCCCCCOc2ccc(C(=N)N)cc2)cc1", "No"),
    ("COc1nc(N)nc2c1ncn2[C@@H]1O[C@H](COP(=O)(N[C@@H](C)C(=O)OCC(C)(C)C)Oc2cccc3ccccc23)[C@@H](O)[C@@]1(C)O (some centres unmarked)", "Yes"),
    ("C#Cc1cccc(Nc2ncnc3cc(OCCOC)c(OCCOC)cc23)c1", "No"),
    ("CC1(C)S[C@@H]2[C@H](NC(=O)[C@H](N)c3ccc(O)cc3)C(=O)N2[C@H]1C(=O)O", "No"),
    ("Cc1cn(-c2cc(NC(=O)c3ccc(C)c(Nc4nccc(-c5cccnc5)n4)c3)cc(C(F)(F)F)c2)cn1", "No"),
    ("CC(C)(Sc1cc(C(C)(C)C)c(O)c(C(C)(C)C)c1)Sc1cc(C(C)(C)C)c(O)c(C(C)(C)C)c1", "No"),
]

----------
- Test system: hiPSC-CMs (iCell-Cardiomyocytes^2)
- Experimental Context: 10 µM; 24h
Quantity Kind: FPDc (field-potential duration corrected by beat-rate), % change from baseline (%)

# Compound, Unit Descriptor, Reported Result
data = [
    ("CC1(C)S[C@@H]2[C@H](NC(=O)[C@H](N)c3ccc(O)cc3)C(=O)N2[C@H]1C(=O)O [Amoxicillin]", "%", 2.2),
    ("COc1nc(N)nc2c1ncn2[C@@H]1O[C@H](COP(=O)(N[C@@H](C)C(=O)OCC(C)(C)C)Oc2cccc3ccccc23)[C@@H](O)[C@@]1(C)O (some centres unmarked) [BMS-986094]", "%", -17.1),
    ("CC(C)(Sc1cc(C(C)(C)C)c(O)c(C(C)(C)C)c1)Sc1cc(C(C)(C)C)c(O)c(C(C)(C)C)c1 [Probucol]", "%", 15.1),
    ("C[C@H](CS)C(=O)N1CCC[C@H]1C(=O)O [Captopril]", "%", 5.7),
    ("C#Cc1cccc(Nc2ncnc3cc(OCCOC)c(OCCOC)cc23)c1 [Erlotinib]", "%", 6.3),
]

Provenance of the data: paper PMC10364322
